Species on record: Rattus norvegicus
Experiment: Open TG-GATES - Regimen: Single
Assay type: toxicity, organism-based, Sprague-Dawley
Design: regimen Single, gender Male, age 6 weeks
Settings: in vivo, po, 0 mg/kg, 24 h, tissue Blood, route gavage, dose level Control
Measurement Label: MCHC (%)
Write the value in % as a bare number.

Compound | Quantity Unit | Observed Measurement
CCOc1ccc(NC(C)=O)cc1 | % | 33
CCCc1cc(=O)[nH]c(=S)[nH]1 | % | 33
COC(=O)C1=C(C)NC(C)=C(C(=O)OC)C1c1ccccc1[N+](=O)[O-] | % | 32.3
CNC(=C[N+](=O)[O-])NCCSCc1ccc(CN(C)C)o1 | % | 35.2
CC(C)NNC(=O)c1ccncc1 | % | 34.4
CS(=O)(=O)O.Cc1ccc(NC(=O)c2ccc(CN3CCN(C)CC3)cc2)cc1Nc1nccc(-c2cccnc2)n1 [IMATINIB MESYLATE] | % | 32.9

GET /values?readout=MCHC&item= Cc1nnc2n1-c1ccc(Cl)cc1C(c1ccccc1Cl)=NC2
32.9

What does the record list as MCHC for CN(C)CCC(c1ccc(Cl)cc1)c1ccccn1 (centres undefined) ?
32.2

Tell me the measured MCHC of Brc1ccccc1 , please.
33.8

What does the data say about its MCHC? Entry: NC1=NC(=O)C(c2ccccc2)O1 (centres undefined)
34

// returns reported MCHC for input O=C(OC[C@H]1O[C@@H](OC(=O)c2cc(O)c(O)c(OC(=O)c3cc(O)c(O)c(O)c3)c2)[C@H](OC(=O)c2cc(O)c(O)c(OC(=O)c3cc(O)c(O)c(O)c3)c2)[C@@H](OC(=O)c2cc(O)c(O)c(OC(=O)c3cc(O)c(O)c(O)c3)c2)[C@@H]1OC(=O)c1cc(O)c(O)c(OC(=O)c2cc(O)c(O)c(O)c2)c1)c1cc(O)c(O)c(OC(=O)c2cc(O)c(O)c(O)c2)c1
33.3

If you can, please state the reported MCHC value of CN1C(=O)CCS(=O)(=O)C1c1ccc(Cl)cc1 (centres undefined) .
34.4

Consider the compound shown here: CN/C(=N/CCSCc1nc[nH]c1C)NC#N What is its recorded MCHC?
33.8

Give the measured MCHC of Nc1c2c(nc3ccccc13)CCCC2 .
34.8

----------
Species on record: Rattus norvegicus
Test: Open TG-GATES - Regimen: Daily Repeat
Format: toxicity, organism-based, Sprague-Dawley
Parameters: regimen Daily Repeat, gender Male, age 6 weeks
Conditions: in vivo, po, 100 mg/kg, 72 h, tissue Blood, route gavage, dose level Low, time 3 day
The entries below are paired with their reported RBC.
Dear colleague, please return just the value in x10_4/ul, with no unit written.

Compound | Measurement Label | Observed Measurement
CCOc1ccc(NC(C)=O)cc1 [PHENACETIN] | RBC | 676.4
CNC(=C[N+](=O)[O-])NCCSCc1ccc(CN(C)C)o1 [RANITIDINE] | RBC | 646.4
O=C(OC[C@H]1O[C@@H](OC(=O)c2cc(O)c(O)c(OC(=O)c3cc(O)c(O)c(O)c3)c2)[C@H](OC(=O)c2cc(O)c(O)c(OC(=O)c3cc(O)c(O)c(O)c3)c2)[C@@H](OC(=O)c2cc(O)c(O)c(OC(=O)c3cc(O)c(O)c(O)c3)c2)[C@@H]1OC(=O)c1cc(O)c(O)c(OC(=O)c2cc(O)c(O)c(O)c2)c1)c1cc(O)c(O)c(OC(=O)c2cc(O)c(O)c(O)c2)c1 [TANNIC ACID] | RBC | 590.2

RBC for Cc1nnc2n1-c1ccc(Cl)cc1C(c1ccccc1Cl)=NC2 [TRIAZOLAM] ?
643

Param item = CN/C(=N/CCSCc1nc[nH]c1C)NC#N [CIMETIDINE] ; retrieve measured RBC.
607

Which measured RBC value corresponds to COC(=O)C1=C(C)NC(C)=C(C(=O)OC)C1c1ccccc1[N+](=O)[O-] [NIFEDIPINE] ?
660.2

----------
Species on record: Rattus norvegicus
Experiment: Open TG-GATES - Regimen: Single
Format: toxicity, organism-based, Sprague-Dawley
Set-up: regimen Single, gender Male, age 6 weeks
Conditions: in vivo, po, 100 mg/kg, 9 h, tissue Plasma, route gavage, dose level Low
Measurement Label: RALB (g/dL)
Just the number in g/dL, nothing appended.

Compound | Observed Measurement
COC(=O)C1=C(C)NC(C)=C(C(=O)OC)C1c1ccccc1[N+](=O)[O-] [NIFEDIPINE] | 2.6

So what does the record say about RALB for O=C(OC[C@H]1O[C@@H](OC(=O)c2cc(O)c(O)c(OC(=O)c3cc(O)c(O)c(O)c3)c2)[C@H](OC(=O)c2cc(O)c(O)c(OC(=O)c3cc(O)c(O)c(O)c3)c2)[C@@H](OC(=O)c2cc(O)c(O)c(OC(=O)c3cc(O)c(O)c(O)c3)c2)[C@@H]1OC(=O)c1cc(O)c(O)c(OC(=O)c2cc(O)c(O)c(O)c2)c1)c1cc(O)c(O)c(OC(=O)c2cc(O)c(O)c(O)c2)c1 [TANNIC ACID] ?
3.6

----------
Species on record: Rattus norvegicus
Test: Open TG-GATES - Regimen: Single
Type: toxicity, organism-based, Sprague-Dawley
Parameters: regimen Single, gender Male, age 6 weeks
Settings: in vivo, po, 1000 mg/kg, 9 h, tissue Plasma, route gavage, dose level High
// returns false unless GLC is strictly below 200 mg/dL, in which case true

Molecule | Category
COC(=O)C1=C(C)NC(C)=C(C(=O)OC)C1c1ccccc1[N+](=O)[O-] [NIFEDIPINE] | false
O=C(OC[C@H]1O[C@@H](OC(=O)c2cc(O)c(O)c(OC(=O)c3cc(O)c(O)c(O)c3)c2)[C@H](OC(=O)c2cc(O)c(O)c(OC(=O)c3cc(O)c(O)c(O)c3)c2)[C@@H](OC(=O)c2cc(O)c(O)c(OC(=O)c3cc(O)c(O)c(O)c3)c2)[C@@H]1OC(=O)c1cc(O)c(O)c(OC(=O)c2cc(O)c(O)c(O)c2)c1)c1cc(O)c(O)c(OC(=O)c2cc(O)c(O)c(O)c2)c1 [TANNIC ACID] | true
CN/C(=N/CCSCc1nc[nH]c1C)NC#N [CIMETIDINE] | true

Kindly review the next molecule as well.
Identify whether the molecule Cc1nnc2n1-c1ccc(Cl)cc1C(c1ccccc1Cl)=NC2 [TRIAZOLAM] records GLC below 200 mg/dL.
true

----------
Organism: Rattus norvegicus
Assay: Open TG-GATES - Regimen: Daily Repeat
Format: toxicity, organism-based, Sprague-Dawley
Design: regimen Daily Repeat, gender Male, age 6 weeks
Details: in vivo, po, 300 mg/kg, […], tissue Blood, route gavage, dose level Middle, time 28 day
Measurement Label: WBC (x10_2/uL)
Kindly answer with a numeric value in x10_2/uL, unit omitted.

Record Smiles | Measurement Label | Quantity Unit | Observed Measurement
O=C(OC[C@H]1O[C@@H](OC(=O)c2cc(O)c(O)c(OC(=O)c3cc(O)c(O)c(O)c3)c2)[C@H](OC(=O)c2cc(O)c(O)c(OC(=O)c3cc(O)c(O)c(O)c3)c2)[C@@H](OC(=O)c2cc(O)c(O)c(OC(=O)c3cc(O)c(O)c(O)c3)c2)[C@@H]1OC(=O)c1cc(O)c(O)c(OC(=O)c2cc(O)c(O)c(O)c2)c1)c1cc(O)c(O)c(OC(=O)c2cc(O)c(O)c(O)c2)c1 | WBC | x10_2/uL | 112.2
CN/C(=N/CCSCc1nc[nH]c1C)NC#N | WBC | x10_2/uL | 140.1

We next turn to a different molecule, shown below.
WBC lookup needed for CCOc1ccc(NC(C)=O)cc1 , thanks.
159.4

----------
Species on record: Rattus norvegicus
Assay: Open TG-GATES - Regimen: Daily Repeat
Type: toxicity, organism-based, Sprague-Dawley
Parameters: regimen Daily Repeat, gender Male, age 6 weeks
Conditions: in vivo, po, 100 mg/kg, […], tissue Blood, route gavage, dose level Low, time 14 day
# Eos values compiled below
Please give a number only; it is taken to be in %.

Compound | Measurement Label | Observed Measurement
CNC(=C[N+](=O)[O-])NCCSCc1ccc(CN(C)C)o1 [RANITIDINE] | Eos | 0.8
O=C(OC[C@H]1O[C@@H](OC(=O)c2cc(O)c(O)c(OC(=O)c3cc(O)c(O)c(O)c3)c2)[C@H](OC(=O)c2cc(O)c(O)c(OC(=O)c3cc(O)c(O)c(O)c3)c2)[C@@H](OC(=O)c2cc(O)c(O)c(OC(=O)c3cc(O)c(O)c(O)c3)c2)[C@@H]1OC(=O)c1cc(O)c(O)c(OC(=O)c2cc(O)c(O)c(O)c2)c1)c1cc(O)c(O)c(OC(=O)c2cc(O)c(O)c(O)c2)c1 [TANNIC ACID] | Eos | 1
COC(=O)C1=C(C)NC(C)=C(C(=O)OC)C1c1ccccc1[N+](=O)[O-] [NIFEDIPINE] | Eos | 1
CCOc1ccc(NC(C)=O)cc1 [PHENACETIN] | Eos | 0.8
CN/C(=N/CCSCc1nc[nH]c1C)NC#N [CIMETIDINE] | Eos | 1

Entry Cc1nnc2n1-c1ccc(Cl)cc1C(c1ccccc1Cl)=NC2 [TRIAZOLAM] has what Eos?
1
